The origin of these recorded values is ChEMBL document CHEMBL3045372.

# System under test: Neuronal acetylcholine receptor; alpha4/beta2 (Homo sapiens, UniProt P17787+P43681)
# Sequence (P17787 whole entry): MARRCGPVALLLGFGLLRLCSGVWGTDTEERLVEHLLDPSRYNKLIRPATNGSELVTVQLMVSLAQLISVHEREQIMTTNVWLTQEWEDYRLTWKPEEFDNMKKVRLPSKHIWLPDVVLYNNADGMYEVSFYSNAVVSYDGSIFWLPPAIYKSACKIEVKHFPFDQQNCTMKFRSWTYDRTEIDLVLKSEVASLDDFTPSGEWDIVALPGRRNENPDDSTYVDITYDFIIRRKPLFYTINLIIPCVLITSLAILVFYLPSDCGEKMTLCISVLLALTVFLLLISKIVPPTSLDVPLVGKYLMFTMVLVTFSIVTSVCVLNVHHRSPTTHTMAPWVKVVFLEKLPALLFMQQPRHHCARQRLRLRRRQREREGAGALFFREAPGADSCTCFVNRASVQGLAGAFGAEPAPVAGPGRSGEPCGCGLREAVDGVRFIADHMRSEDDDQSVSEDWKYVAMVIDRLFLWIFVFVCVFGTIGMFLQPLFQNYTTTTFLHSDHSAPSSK
# Sequence (P43681 whole entry): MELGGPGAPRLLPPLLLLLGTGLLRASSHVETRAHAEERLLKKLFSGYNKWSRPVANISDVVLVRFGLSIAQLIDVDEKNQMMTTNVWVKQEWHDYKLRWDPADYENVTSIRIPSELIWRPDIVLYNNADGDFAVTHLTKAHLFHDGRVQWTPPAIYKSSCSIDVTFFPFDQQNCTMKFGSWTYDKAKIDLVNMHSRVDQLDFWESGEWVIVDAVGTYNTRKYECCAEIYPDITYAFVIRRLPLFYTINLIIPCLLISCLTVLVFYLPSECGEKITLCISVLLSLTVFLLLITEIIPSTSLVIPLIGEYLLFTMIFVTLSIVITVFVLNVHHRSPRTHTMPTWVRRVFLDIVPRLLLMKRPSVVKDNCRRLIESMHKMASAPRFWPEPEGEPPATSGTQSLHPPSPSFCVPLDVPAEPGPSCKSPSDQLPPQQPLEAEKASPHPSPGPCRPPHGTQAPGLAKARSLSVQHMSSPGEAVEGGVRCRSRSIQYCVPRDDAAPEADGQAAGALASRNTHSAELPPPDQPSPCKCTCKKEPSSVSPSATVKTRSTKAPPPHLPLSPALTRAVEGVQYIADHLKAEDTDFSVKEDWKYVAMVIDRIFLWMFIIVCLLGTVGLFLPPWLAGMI
# Protocol: Displacement of [3H]nicotine from Homo sapiens (human) alpha4beta2 nicotinic acetylcholine receptor expressed in Homo sapiens (human) SH-EP1 cells after 2.5 min by scintillation counting
# Format: cell-based
# Measurement conditions: read-out: Ki
Here the recorded Ki is given for each entry.
Numbers only here, please. The scale is nM.

Solved cases below.
Mol smiles: CN(C)CCOc1cccc(O)c1
Quantity unit: nM
Ki: 360
//
Mol smiles: CC(C)N(CCOc1cccnc1)C(C)C
Quantity unit: nM
Ki: 11200
//
Mol smiles: CN(C)CCOc1cccnc1
Quantity unit: nM
Ki: 300
//
Mol smiles: CN(C)CCOc1cncc(Cl)c1
Quantity unit: nM
Ki: 450

Proceeding to the next molecule to report its Ki.
Ki for `CN(C)CCOc1cccc([N+](=O)[O-])c1` is 3390
